# run description: Inhibition of malate dehydrogenase (unknown origin) using oxaloacetate as substrate preincubated for 5 mins followed by substrate addition by UV-vis spectrophotometric method
# Design: species or system Homo sapiens
experimental readout: IC50

Please report the recorded IC50 for COc1cc(/C=C/C(=O)CC(=O)/C=C/c2ccc(O)c(OC)c2)ccc1O .
9 µM

====

# Tested on: Mus musculus
# run description: Cmax in mouse at 100 mg/kg, po after 30 mins
# Assay type: ADME, organism-based
# Design: dose 100 mg/kg, route oral
# reported conditions: in vivo, 0.5 h
experimental readout: Cmax
Please don't drop the unit; write it after the number.

Please report the recorded Cmax for COc1cc(/C=C/C(=O)CC(=O)/C=C/c2ccc(O)c(OC)c2)ccc1O [CURCUMIN] .
60 nM

====

# run description: Half-life in Tris-HCl buffer at 70 uM at pH 7.5 by UV/Vis spectrophotometric method
# Assay type: physicochemical
experimental readout: half-life at 70 µM (min)
Output spec: scalar in min, unitless text.

Please report the recorded half-life at 70 µM for COc1cc(/C=C/C(=O)CC(=O)/C=C/c2ccc(O)c(OC)c2)ccc1O [CURCUMIN] .
20

====

# run description: Plasma concentration in human at 3.6 g, po administered as capsule measured at 1 hr post dose by UV-RP-HPLC method
# Assay type: ADME, organism-based
experimental readout: concentration at 1 h (ng/mL)
Output spec: scalar in ng/mL, unitless text.

Please report the recorded concentration at 1 h for COc1cc(/C=C/C(=O)CC(=O)/C=C/c2ccc(O)c(OC)c2)ccc1O .
11.1

====

# system name: UniProt:P18266
# Sequence (P18266 whole entry): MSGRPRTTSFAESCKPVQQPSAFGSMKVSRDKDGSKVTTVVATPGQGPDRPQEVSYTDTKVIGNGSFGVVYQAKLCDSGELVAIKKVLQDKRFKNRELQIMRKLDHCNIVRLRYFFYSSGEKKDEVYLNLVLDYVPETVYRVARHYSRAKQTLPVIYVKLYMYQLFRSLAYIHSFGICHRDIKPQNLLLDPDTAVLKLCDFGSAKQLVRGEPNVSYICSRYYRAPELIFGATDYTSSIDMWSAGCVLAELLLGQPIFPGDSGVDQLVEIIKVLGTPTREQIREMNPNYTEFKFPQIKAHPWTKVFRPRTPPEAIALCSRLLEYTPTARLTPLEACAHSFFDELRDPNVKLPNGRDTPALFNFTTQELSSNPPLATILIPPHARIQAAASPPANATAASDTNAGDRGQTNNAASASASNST
# run description: Inhibition of recombinant rat N-terminal GST-tagged GSK3beta expressed in Escherichia coli assessed as reduction in tau phosphorylation preincubated for 30 mins followed by tau protein addition measured after 1 hr by ELISA
experimental readout: pIC50
Reminder that pIC50 means the negative base-10 logarithm of the concentration expressed in mol/L.

Please report the recorded pIC50 for COc1cc(/C=C/C(=O)CC(=O)/C=C/c2ccc(O)c(OC)c2)ccc1O .
7.18

====

# Test system: Plasma
# run description: Plasma concentration in human at 8 g/day, po by HPLC/TMS
# Assay type: ADME, organism-based
# reported conditions: in vivo
experimental readout: Cp

Please report the recorded Cp for COc1cc(/C=C/C(=O)CC(=O)/C=C/c2ccc(O)c(OC)c2)ccc1O .
22 to 41 ng/mL

====

# run description: Half-life in Tris-HCl buffer at 70 uM at pH 7.2 by UV/Vis spectrophotometric method
# Format: physicochemical
experimental readout: half-life at 70 µM

Please report the recorded half-life at 70 µM for COc1cc(/C=C/C(=O)CC(=O)/C=C/c2ccc(O)c(OC)c2)ccc1O .
< 10 min

====

# run description: Apparent permeability in human Caco2 cells
# Assay type: ADME, cell-based
# reported conditions: Caco-2
experimental readout: Papp (×10⁻⁶ cm/s)
Output spec: scalar in ×10⁻⁶ cm/s, unitless text.

Please report the recorded Papp for COc1cc(/C=C/C(=O)CC(=O)/C=C/c2ccc(O)c(OC)c2)ccc1O .
3.18
